testedOn: UniProt:P19327
Sequence (P19327 1-422): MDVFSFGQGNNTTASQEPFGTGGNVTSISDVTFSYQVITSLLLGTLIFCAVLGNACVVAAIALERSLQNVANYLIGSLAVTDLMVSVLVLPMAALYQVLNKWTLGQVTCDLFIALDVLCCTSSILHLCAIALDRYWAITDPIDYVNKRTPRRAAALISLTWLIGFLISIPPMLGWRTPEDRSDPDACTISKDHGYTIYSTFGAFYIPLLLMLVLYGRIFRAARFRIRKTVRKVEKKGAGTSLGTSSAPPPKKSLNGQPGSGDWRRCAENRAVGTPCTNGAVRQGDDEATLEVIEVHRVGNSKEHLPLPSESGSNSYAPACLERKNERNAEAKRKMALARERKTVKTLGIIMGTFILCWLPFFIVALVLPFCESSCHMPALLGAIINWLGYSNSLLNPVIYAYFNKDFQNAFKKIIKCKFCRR
recordedMetric: IC50

Recorded IC50 of `COc1ccccc1N1CCN(CCc2ccccc2-c2ccccc2)CC1` , please. 2 nM
